# target-under-test: VIM-2 (Veronese metallo-β-lactamase-2) (Escherichia coli, UniProt Q5U7L7)
# protocol-details: Metallo-β-lactamase enzyme inhibition, standard assay protocol
property: pIC50
// pIC50: -log10(molar conc.)

Consider the following illustrative entries.
>  <compound>
C=C(C)c1csc2c(-c3ccc(F)cc3)c(C(=O)O)[nH]c12 [Example 6]

>  <observed-result>
6.90

$$$$
>  <compound>
O=C(O)c1cc2scc(Br)c2[nH]1 [Example 3]

>  <observed-result>
4.80

$$$$
>  <compound>
CC(C)c1csc2cc(C(=O)O)[nH]c12 [Example 7]

>  <observed-result>
4.70

$$$$
>  <compound>
O=C(O)c1[nH]c2c(C3CC3)csc2c1-c1ccc(F)cc1 [Example 13]

>  <observed-result>
7.10

$$$$
>  <compound>
CC(=O)Nc1cccc(-c2c(C(=O)O)[nH]c3c(Br)csc23)c1 [Example 9]

>  <observed-result>
7.30

$$$$

API: value(readout= pIC50, system= VIM-2 (Veronese metallo-β-lactamase-2) (Escherichia coli, UniProt Q5U7L7), query= O=C(O)c1[nH]c2c(-c3ccc(F)cc3)csc2c1-c1ccc(F)cc1 [Example 5] ) 5.00

Please provide the recorded pIC50 for CC(C)c1csc2c(-c3ccc(F)cc3)c(C(=O)O)[nH]c12 [Example 12] , tested on VIM-2 (Veronese metallo-β-lactamase-2) (Escherichia coli, UniProt Q5U7L7). 7.40

GET /values?readout=pIC50&system=VIM-2 (Veronese metallo-β-lactamase-2) (Escherichia coli, UniProt Q5U7L7)&item= O=C(O)c1[nH]c2c(C3CC3)csc2c1-c1cc(Cl)cc(Cl)c1 [Example 2] 8.30

Request - read-out pIC50 | tested on VIM-2 (Veronese metallo-β-lactamase-2) (Escherichia coli, UniProt Q5U7L7) | compound O=C(O)c1[nH]c2c(Br)csc2c1-c1ccc(F)cc1 [Example 4] 6.50

Could you share what pIC50 was measured for O=C(O)c1cc2scc(C3CC3)c2[nH]1 [Example 8] , tested on VIM-2 (Veronese metallo-β-lactamase-2) (Escherichia coli, UniProt Q5U7L7)? 4.40

pIC50 of NS(=O)(=O)c1ccc(-c2c(C(=O)O)[nH]c3c(Br)csc23)cc1 [Example 14] on VIM-2 (Veronese metallo-β-lactamase-2) (Escherichia coli, UniProt Q5U7L7)? 6.80

Find the measured pIC50: item O=C(O)c1[nH]c2c(Br)csc2c1-c1cc(Cl)cc(Cl)c1 [Example 1] , target or system VIM-2 (Veronese metallo-β-lactamase-2) (Escherichia coli, UniProt Q5U7L7). 7.40

###

# Tested on: E. coli IMP-4
# protocol-details: Meropenem MIC, CLSI broth or agar microdilution, strain entry 2
# Type: cell-based
# stated-conditions: 8 mg/L inhibitor
Measured Change in MIC value of meropenem of individual entries
Unit log2 difference implied. Number only.

>  <smiles-input>
CC(C)c1csc2c(-c3ccc(F)cc3)c(C(=O)O)[nH]c12

>  <target-under-test>
E. coli IMP-4

>  <Change in MIC value of meropenem, log2 difference>
−3

$$$$
>  <smiles-input>
O=C(O)c1[nH]c2c(C3CC3)csc2c1-c1ccc(F)cc1

>  <target-under-test>
E. coli IMP-4

>  <Change in MIC value of meropenem, log2 difference>
−2

$$$$
>  <smiles-input>
CS(=O)(=O)Cc1ccc(-c2c(C(=O)O)[nH]c3c(C4CC4)csc23)cc1Cl

>  <target-under-test>
E. coli IMP-4

>  <Change in MIC value of meropenem, log2 difference>
0

$$$$
>  <smiles-input>
NS(=O)(=O)c1ccc(-c2c(C(=O)O)[nH]c3c(Br)csc23)cc1

>  <target-under-test>
E. coli IMP-4

>  <Change in MIC value of meropenem, log2 difference>
−1

$$$$
>  <smiles-input>
C=C(C)c1csc2c(-c3ccc(F)cc3)c(C(=O)O)[nH]c12

>  <target-under-test>
E. coli IMP-4

>  <Change in MIC value of meropenem, log2 difference>
−2

$$$$

Moving on to the next compound.
Query (compound): O=C(O)c1[nH]c2c(C3CC3)csc2c1-c1cc(Cl)cc(Cl)c1 ; field requested: Change in MIC value of meropenem −3

###

# Tested on: E. coli IMP-4
# protocol-details: Meropenem MIC, CLSI broth or agar microdilution, strain entry 2
# Format: cell-based
# stated-conditions: 4 mg/L inhibitor
property: Change in MIC value of meropenem (log2 difference)
Please respond with the number in log2 difference and leave the unit unwritten.

>  <smiles-input>
O=C(O)c1[nH]c2c(C3CC3)csc2c1-c1cc(Cl)cc(Cl)c1

>  <Change in MIC value of meropenem / log2 difference>
−2

$$$$
>  <smiles-input>
O=C(O)c1[nH]c2c(C3CC3)csc2c1-c1ccc(F)cc1

>  <Change in MIC value of meropenem / log2 difference>
−2

$$$$
>  <smiles-input>
NS(=O)(=O)c1ccc(-c2c(C(=O)O)[nH]c3c(Br)csc23)cc1

>  <Change in MIC value of meropenem / log2 difference>
−1

$$$$
>  <smiles-input>
CS(=O)(=O)Cc1ccc(-c2c(C(=O)O)[nH]c3c(C4CC4)csc23)cc1Cl

>  <Change in MIC value of meropenem / log2 difference>
0

$$$$
>  <smiles-input>
CC(C)c1csc2c(-c3ccc(F)cc3)c(C(=O)O)[nH]c12

>  <Change in MIC value of meropenem / log2 difference>
−2

$$$$

Note: attention shifts to another entry.
Tell me the measured Change in MIC value of meropenem of C=C(C)c1csc2c(-c3ccc(F)cc3)c(C(=O)O)[nH]c12 , please. −2

###

Measured pIC50 of individual entries
# target-under-test: VIM-1 (Veronese metallo-β-lactamase-1) (Pseudomonas aeruginosa, UniProt A0A0F7KYQ8)
# protocol-details: Metallo-β-lactamase enzyme inhibition, standard assay protocol
Remember, pIC50 is on a log scale: it is -log10 of the molar concentration.

As a guide, the following entries are already answered.
>  <smiles-input>
O=C(O)c1[nH]c2c(Br)csc2c1-c1ccc(F)cc1

>  <pIC50>
5.30

$$$$
>  <smiles-input>
O=C(O)c1[nH]c2c(C3CC3)csc2c1-c1cc(Cl)cc(Cl)c1

>  <pIC50>
6.90

$$$$
>  <smiles-input>
CC(=O)Nc1cccc(-c2c(C(=O)O)[nH]c3c(Br)csc23)c1

>  <pIC50>
5.80

$$$$
>  <smiles-input>
O=C(O)c1[nH]c2c(C3CC3)csc2c1-c1ccc(F)cc1

>  <pIC50>
5.80

$$$$
>  <smiles-input>
C=C(C)c1csc2c(-c3ccc(F)cc3)c(C(=O)O)[nH]c12

>  <pIC50>
6.20

$$$$

Could you tell me which pIC50 is on file for CC(C)c1csc2c(-c3ccc(F)cc3)c(C(=O)O)[nH]c12 ? 6.20

# lookup: pIC50 of NS(=O)(=O)c1ccc(-c2c(C(=O)O)[nH]c3c(Br)csc23)cc1 5.50

Param item = O=C(O)c1[nH]c2c(Br)csc2c1-c1cc(Cl)cc(Cl)c1 ; retrieve measured pIC50. 6.20

###

In this section, each of the molecules is paired with its reported pIC50.
# target-under-test: NDM-1 (New Delhi metallo-β-lactamase-1) (Klebsiella pneumoniae, UniProt C7C422)
# Sequence (C7C422 29-270, looked up, species assumed): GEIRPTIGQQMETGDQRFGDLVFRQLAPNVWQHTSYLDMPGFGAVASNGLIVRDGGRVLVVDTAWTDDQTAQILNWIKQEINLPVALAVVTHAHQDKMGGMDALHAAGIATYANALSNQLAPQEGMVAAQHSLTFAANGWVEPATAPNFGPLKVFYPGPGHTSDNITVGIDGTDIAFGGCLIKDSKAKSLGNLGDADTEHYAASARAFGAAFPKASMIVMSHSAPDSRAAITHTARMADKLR
# protocol-details: Metallo-β-lactamase enzyme inhibition, standard assay protocol
Expect pIC50 as a plain number equal to -log10 of the molar concentration.

>  <smiles-input>
O=C(O)c1[nH]c2c(-c3ccc(F)cc3)csc2c1-c1ccc(F)cc1

>  <target-under-test>
NDM-1 (New Delhi metallo-β-lactamase-1) (Klebsiella pneumoniae, UniProt C7C422)

>  <pIC50>
4.90

$$$$
>  <smiles-input>
CC(C)c1csc2c(-c3ccc(F)cc3)c(C(=O)O)[nH]c12

>  <target-under-test>
NDM-1 (New Delhi metallo-β-lactamase-1) (Klebsiella pneumoniae, UniProt C7C422)

>  <pIC50>
7.30

$$$$
>  <smiles-input>
O=C(O)c1cc2scc(Br)c2[nH]1

>  <target-under-test>
NDM-1 (New Delhi metallo-β-lactamase-1) (Klebsiella pneumoniae, UniProt C7C422)

>  <pIC50>
3.90

$$$$
>  <smiles-input>
O=C(O)c1[nH]c2c(Br)csc2c1-c1ccc(F)cc1

>  <target-under-test>
NDM-1 (New Delhi metallo-β-lactamase-1) (Klebsiella pneumoniae, UniProt C7C422)

>  <pIC50>
6.70

$$$$

Entry under review: O=C(O)c1[nH]c2c(C3CC3)csc2c1-c1cc(Cl)cc(Cl)c1 . Reported pIC50? 7.80

Recorded pIC50 of C=C(C)c1csc2c(-c3ccc(F)cc3)c(C(=O)O)[nH]c12 , please. 7.40

###

Change in MIC value of meropenem by entry:
# Tested on: Klebsiella pneumoniae NDM-1
# protocol-details: Meropenem MIC, CLSI broth or agar microdilution, strain entry 6
# Format: cell-based
# stated-conditions: strain entry 6, Klebsiella pneumoniae NDM-1; 4 mg/L inhibitor
Kindly provide the numeric value in log2 difference only, without the unit symbol.

Example entries and their recorded answers appear below.
>  <smiles-input>
CC(C)c1csc2c(-c3ccc(F)cc3)c(C(=O)O)[nH]c12

>  <target-under-test>
Klebsiella pneumoniae NDM-1

>  <Change in MIC value of meropenem [log2 difference]>
−1

$$$$
>  <smiles-input>
CS(=O)(=O)Cc1ccc(-c2c(C(=O)O)[nH]c3c(C4CC4)csc23)cc1Cl

>  <target-under-test>
Klebsiella pneumoniae NDM-1

>  <Change in MIC value of meropenem [log2 difference]>
0

$$$$
>  <smiles-input>
O=C(O)c1[nH]c2c(C3CC3)csc2c1-c1ccc(F)cc1

>  <target-under-test>
Klebsiella pneumoniae NDM-1

>  <Change in MIC value of meropenem [log2 difference]>
−1

$$$$
>  <smiles-input>
C=C(C)c1csc2c(-c3ccc(F)cc3)c(C(=O)O)[nH]c12

>  <target-under-test>
Klebsiella pneumoniae NDM-1

>  <Change in MIC value of meropenem [log2 difference]>
−1

$$$$
>  <smiles-input>
NS(=O)(=O)c1ccc(-c2c(C(=O)O)[nH]c3c(Br)csc23)cc1

>  <target-under-test>
Klebsiella pneumoniae NDM-1

>  <Change in MIC value of meropenem [log2 difference]>
−1

$$$$

Consider the additional compound presented here.
# lookup: Change in MIC value of meropenem of O=C(O)c1[nH]c2c(C3CC3)csc2c1-c1cc(Cl)cc(Cl)c1 −1
